Biological target: T1, human CD70 on CD70 positive cell lines (human, UniProt P32970 1-193)
T1 sequence (looked up): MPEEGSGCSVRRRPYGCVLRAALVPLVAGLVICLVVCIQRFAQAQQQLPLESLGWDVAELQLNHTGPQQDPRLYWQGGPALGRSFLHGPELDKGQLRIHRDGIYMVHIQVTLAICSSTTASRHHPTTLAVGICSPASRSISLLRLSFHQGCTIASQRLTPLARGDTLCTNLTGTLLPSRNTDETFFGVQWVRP
Assay: cell-based or functional assay
Reported cytotoxicity IC50 (mean, n = 3), 786-O cells values are given for each entry in this list.
The figure you give is taken to be in ng/mL; do not add the unit.

Please review the following examples before continuing.
Binder | Unit Of Measure | Experimental Result
c1F6(293)-F8 (c1F6 conjugated to vcMMAF, eight drug units per antibody) (antibody, V domains shown, vcMMAF conjugated, loading level of eight drug units per antibody; attachment residues not stated) VH: QIQLVQSGPEVKKPGETVKISCKASGYTFTNYGMNWVKQAPGKGLKWMGWINTYTGEPTYADAFKGRFAFSLETSASTAYLQINNLKNEDTATYFCARDYGDYGMDYWGQGTSVTVSS VL: DIVLTQSPASLAVSLGQRATISCRASKSVSTSGYSFMHWYQQKPGQPPKLLIYLASNLESGVPARFSGSGSGTDFTLNIHPVEEEDAATYYCQHSREVPWTFGGGTKLEIKR | ng/mL | 1.45
h1F6 HHLA-F8 (HHLA conjugated to vcMMAF, eight drug units per antibody) (antibody, human IgG1, kappa, V domains shown, vcMMAF conjugated, loading level of eight drug units per antibody; attachment residues not stated) VH: QVQLVQSGAEVKKPGASVKVSCKASGYTFTNYGMNWVRQAPGQGLEWMGWINTYTGEPTYADAFKGRFAFSLDTSTSTAYLQINSLRSDDTAVYYCARDYGDYGMDYWGQGTTVTVSS VL: DIVMTQSPDSLAVSLGERATINCRASKSVSTSGYSFMHWYQQKPGQPPKLLIYLASNLESGVPDRFSGSGSGTDFTLTISSLQAEDVAVYYCQHSREVPWTFGQGTKVEIKR | ng/mL | 1.93
h1F6 HMLA-F8 (humanized 1F6 derivative HMLA, hVHM and hVLA, conjugated to vcMMAF, eight drug units per antibody) (antibody, human IgG1, kappa, V domains shown, vcMMAF conjugated, loading level of eight drug units per antibody; attachment residues not stated) VH: QVQLVQSGAEVKKPGASVKVSCKASGYTFTNYGMNWVRQAPGQGLKWMGWINTYTGEPTYADAFKGRFAFSLDTSTSTAYMELRSLRSDDTAVYYCARDYGDYGMDYWGQGTTVTVSS VL: DIVMTQSPDSLAVSLGERATINCRASKSVSTSGYSFMHWYQQKPGQPPKLLIYLASNLESGVPDRFSGSGSGTDFTLTISSLQAEDVAVYYCQHSREVPWTFGQGTKVEIKR | ng/mL | 2.03

For the binder h1F6 HELA-F8 (humanized 1F6 derivative HELA, hVHE and hVLA, conjugated to vcMMAF, eight drug units per antibody) (antibody, human IgG1, kappa, V domains shown, vcMMAF conjugated, loading level of eight drug units per antibody; attachment residues not stated) VH: QVQLVQSGAEVKKPGASVKVSCKASGYTFTNYGMNWVRQAPGQGLEWMGWINTYTGEPTYADAFKGRVTMTRDTSISTAYMELSRLRSDDTAVYYCARDYGDYGMDYWGQGTTVTVSS VL: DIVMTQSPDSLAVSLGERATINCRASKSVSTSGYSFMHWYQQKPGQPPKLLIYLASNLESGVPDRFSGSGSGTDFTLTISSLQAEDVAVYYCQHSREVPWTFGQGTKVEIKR , report cytotoxicity IC50 (mean, n = 3), 786-O cells.
3.9
